Tested on: HL-60(TB) leukemia
Experiment: NCI tumour cell line growth inhibition, 48 h
Parameter: TGI. Scope: all listed entries.
QUANTITY: TGI (µM)

MOLECULE	INEQUALITY SIGN	VALUE REPORTED
NCS(=O)(=O)O	>	100
C[C@H]1C(OCCOC2O[C@@H]3O[C@@]4(C)CC[C@H]5[C@H](C)CCC([C@H]2C)[C@@]35O4)O[C@@H]2O[C@@]3(C)CC[C@H]4[C@H](C)CCC1[C@@]24O3 (stereo not given in full)	=	74.9
Cc1c2ccnc(-c3ccccc3)c2cc2c1[nH]c1ccccc12	=	5.35
O=C(CCCNC(=O)OCc1ccccc1)OCc1ccc2c(c1)C(=O)c1ccccc1C2=O	>	100
COc1cc(C2CC(c3ccc4c(c3)OCO4)=NN2C(C)=O)cc(OC)c1OC (stereo not given)	=	2.92
CN(C)c1nc(N(C)C)n2nc(-c3ccccc3[N+](=O)[O-])nc2n1	>	100
COc1cccc(/C(C=O)=C(\Cl)c2ccc(OC)c(OC)c2)c1	=	20.7
CC(NC(=O)/C(C#N)=C/c1ccc2[nH]ccc2c1)c1ccccc1 (stereo not given)	=	54.8
BrC(Br)(Br)c1cnc2ccccc2n1	=	4.16
CC(=O)c1c(O)ccc2c1CC(CC=O)O2 (stereo not given)	>	100

---

System: SNB-78 CNS
Assay: NCI tumour cell line growth inhibition, 48 h
QUANTITY: TGI

COMPOUND	VALUE REPORTED
COc1ccc(/C(Cl)=C(\C=O)c2ccc(OC)c(OC)c2)cc1OC	> 100 µM
OCC(O)COc1c(Cl)ccc(Cl)c1Cl (stereo unspecified)	> 100 µM
CN(C)c1nc(N(C)C)n2nc(-c3ccccc3[N+](=O)[O-])nc2n1	> 100 µM
NC1=NC2(O)c3ccccc3C(=O)C2(O)N1 (stereo unspecified)	> 100 µM
COc1cc2c(cc1OC)C(Cl)C(c1ccc(Cl)cc1)=C2Cl (stereo unspecified)	58.5 µM
O=C1OC(c2ccccc2)=N/C1=C\c1c(O)cc(O)cc1O	> 100 µM

---

Recorded measurements of TGI, one per entry
Tested on: MDA-N
Experiment: NCI tumour cell line growth inhibition, 48 h
QUANTITY: TGI

MOLECULE	VALUE REPORTED
Cc1ccc(S(=O)(=O)[N-]C2C(=O)c3ccccc3C(=O)C2[n+]2cccc(C(N)=O)c2)cc1 (stereo unspecified)	> 100 µM
NCS(=O)(=O)O	> 100 µM
O=C1SC(c2ccc(Cl)cc2)(c2ccc(Cl)cc2)c2ccccc21	> 100 µM
CS(=O)(=O)OCCN(CCOS(C)(=O)=O)c1ccc(C=Nc2ccc3oc(=O)ccc3c2)cc1	35.8 µM
COc1ccc2nc3cc([N+](=O)[O-])ccc3c(NNc3ccc(Cl)cc3)c2c1	> 100 µM
COc1ccc(CNc2nc(NCc3ccc(OC)cc3)nc(NC(C)C)n2)cc1	10.3 µM
O=C(O)C(Br)C(Br)c1ccccc1[N+](=O)[O-] (stereo unspecified)	> 100 µM
C[n+]1cccc(/C=C/c2ccc3cccc(O)c3n2)c1	> 100 µM
O=[N+]([O-])/C(Cl)=C(\Nc1ccccc1)C(Cl)=C(Cl)Cl	> 100 µM
O=C1c2ccccc2C(=O)c2c(NCCNC(=O)C3CCCN3)ccc(NCCNC(=O)C3CCCN3)c21 (stereo unspecified)	> 100 µM
Cc1cc(S(=O)(=O)Nc2nc(N)nc(N3CCOCC3)n2)c(SCC(=O)O)cc1Cl	> 10 µM
c1ccc2[nH]c3[nH]c4[nH]c5ccccc5[nH]c4[nH]c3[nH]c2c1	> 100 µM
CCC(CC)C(=O)OC[n+]1cccc(-c2c(COC(=O)NC(C)C)c(COC(=O)NC(C)C)c3n2CCC3)c1	> 100 µM
CCOC(=O)c1nnsc1NC(=O)Nc1ccc(Cl)cc1	> 100 µM
CN(C)CCOC1(Cc2ccc(Cl)cc2Cl)CCC(C(C)(C)C)CC1 (stereo unspecified)	3.31 µM
COc1ccc(-c2c3c(n(C4OC(CO)C(O)C(O)C4O)c(=S)c2C#N)CC(C)(C)CC3=O)cc1 (stereo unspecified)	> 100 µM
O=C1Nc2ccccc2[C@]12C[C@H]2c1ccccn1	> 100 µM
O=c1oc2cc(O)ccc2c(O)c1C(c1ccccn1)c1c(O)c2ccc(O)cc2oc1=O	> 100 µM
C=C1C(=O)O[C@H]2[C@H]1[C@H](OC(=O)/C(C)=C\C)C[C@]1(CO1)[C@@H]1[C@H](OC(C)=O)C=C(C)[C@]21O	34.8 µM
COc1ccc(/C(Cl)=C(\C=O)c2ccc(OC)c(OC)c2)cc1OC	> 100 µM
CC(=O)NCCCCCCNC(C)=O	> 10000 µM
